test: Clinical bioequivalence study: plasma concentrations (LC-MS-MS) and noncompartmental PK after oral tablet; type: in vivo, human; settings: human, plasma, po, 2 mg, clonazepam 2 mg oral, plasma, 96 h, mean ±1 SD N=14; read-out: Concentration, Referent
Parameter measured: concentration at 96 h (ng/mL)

>>> numeric_readout("O=C1CN=C(c2ccccc2Cl)c2cc([N+](=O)[O-])ccc2N1")
1.95

====

assay: Clinical bioequivalence study: plasma concentrations (LC-MS-MS) and noncompartmental PK after oral tablet; format: in vivo, human; conditions: human, plasma, po, 2 mg, clonazepam 2 mg oral, plasma, 72 h, mean ±1 SD N=14; read-out: Concentration, Referent
Parameter measured: concentration at 72 h

>>> result("O=C1CN=C(c2ccccc2Cl)c2cc([N+](=O)[O-])ccc2N1 [Clonazepam, clonazepam]")
"3.22 ng/mL"
